- System: 60 cancer cell lines (NCI 60 cancer cell line series)
- assay_summary: NCI-DTP in vitro cancer screen, sulforhodamine B (SRB) growth inhibition, 48 hour exposure
- Type: cell-based, human
- test_context: Renal RXF-393 CL9016
Counter-ions that a name gives are not always drawn.
endpoint_label: sensitivity classification Low(1)/Medium(2)/High(3)

- compound: "COc1cccc2c1C(=O)c1c(O)c3c(c(O)c1C2=O)C[C@@](O)(C(C)=O)C[C@@H]3O[C@H]1C[C@H](N)[C@H](O)[C@H](C)O1 [Daunorubicin]"
  data_value: 1
- compound: "CC[C@]1(O)C[C@@H]2CN(CCc3c([nH]c4ccccc34)[C@@](C(=O)OC)(c3cc4c(cc3OC)N(C)[C@H]3[C@@](O)(C(=O)OC)[C@H](OC(C)=O)[C@]5(CC)C=CCN6CC[C@]43[C@@H]65)C2)C1 [Vinblastine sulfate]"
  data_value: 2
- compound: "N[C@@H](Cc1ccc(N(CCCl)CCCl)cc1)C(=O)O [Melphalan]"
  data_value: 2
